test system: caterpillars of the army worm (Spodoptera frugiperda); experiment: Spodoptera frugiperda test (SPODFR spray treatment); type: in vivo; details: 500 g/ha, spray, after 7 days
assay.endpoint: activity (caterpillars killed) (%)
Value expressed in %; do not type the unit.

Solved cases (4 shown):
INSERT INTO results (molecule, measurement_unit, numeric_readout) VALUES
  ('Cc1ccc(N=C2C(=CSc3ccccc3F)CCc3ccccc32)cc1 [Example 1-80]', '%', 100),
  ('Cc1ccc(N=C2C(=CSc3ccc(F)cc3)CCc3occc32)cc1 [Example 1-29]', '%', 100),
  ('Cc1ccc(N=C2C(=CSc3ccc(F)cc3)CCc3c(C)cc(C)cc32)cc1 [Example 1-30]', '%', 100),
  ('Cc1ccc(N=C2C(=CSc3ccccc3)C(c3ccccc3)c3ccccc32)cc1 (mixture of isomers) [Example 1-20]', '%', 100);

Entry CCc1ccc(N=C2C(=CSc3ccc(F)cc3)CCc3ccccc32)cc1 [Example 1-39] , caterpillars of the army worm (Spodoptera frugiperda) data, activity (caterpillars killed) value: 100

Entry Cc1cccc(N=C2C(=CSc3ccccc3)C(C)c3ccccc32)c1 (mixture of isomers) [Example 1-12] , caterpillars of the army worm (Spodoptera frugiperda) data, activity (caterpillars killed) value: 100

Entry Cc1ccc(N=C2C(=CSc3ccc(F)cc3F)CCc3ccccc32)cc1 [Example 1-79] , caterpillars of the army worm (Spodoptera frugiperda) data, activity (caterpillars killed) value: 100

Entry Cc1ccc(N=C2C(=CSc3ccccc3)C(C)c3ccccc32)cc1 (mixture of isomers) [Example 1-5] , caterpillars of the army worm (Spodoptera frugiperda) data, activity (caterpillars killed) value: 100

Entry COc1ccc(N=C2C(=CSc3ccccc3)C(C)c3ccccc32)cc1 (mixture of isomers) [Example 1-22] , caterpillars of the army worm (Spodoptera frugiperda) data, activity (caterpillars killed) value: 100

----------
Overview of recorded activity (kill in %) for various compounds
test system: Ctenocephalides felis; test: Ctenocephalides felis oral test (CTECFE); format: in vivo; conditions: 100 ppm in citrated cattle blood, after two days
Value expressed in %; do not type the unit.

Solved cases (3 shown):
INSERT INTO results (compound, numeric_readout) VALUES
  ('Cc1ccc(N=C2C(=CSc3ccc(F)cc3)CCc3c(F)cccc32)cc1 (mixture of isomers)', 100),
  ('Cc1ccc(N=C2C(=CSc3ccc(F)cc3)C(C)c3cc(C)ccc32)c(C)c1 (mixture of isomers)', 90),
  ('Cc1ccc(N=C2C(=CSc3ccc(F)cc3)CSc3ccccc32)cc1', 100);

// field: activity (kill in %); key: "Cc1ccc(N=C2C(=CSc3cccc(Cl)c3)CCc3ccccc32)cc1" ; value = 100

// field: activity (kill in %); key: CCC1C(=CSc2ccc(F)cc2)C(=Nc2ccc(C)cc2)c2ccccc21 (mixture of isomers) ; value = 100

// field: activity (kill in %); key: "Cc1ccc(N=C2C(=CSc3ccccc3)CSc3ccccc32)cc1" ; value = 100

// field: activity (kill in %); key: "Cc1ccc(N=C2C(=CSc3ccc(F)cc3)COc3ccccc32)cc1" ; value = 90

// field: activity (kill in %); key: "Cc1ccc(N=C2/C(=C/Sc3ccccc3)CCc3ccccc32)cc1" ; value = 80

----------
Overview of recorded activity against cat fleas for various compounds
system: cat fleas (Ctenocephalides felis, fully sensitive laboratory strain); experiment: Contact test against fleas in-vitro (CTECFE contact); type: in vivo; conditions: 500 g/ha, after 48 h
Value expressed in %; do not type the unit.

INSERT INTO results (compound, assay_target, numeric_readout) VALUES
  ('CCc1ccc(N=C2C(=CSc3ccc(F)cc3)CCc3ccccc32)cc1', 'cat fleas (Ctenocephalides felis, fully sensitive laboratory strain)', 100),
  ('Cc1ccc(N=C2C(=CSc3ccccc3)COc3ccccc32)cc1', 'cat fleas (Ctenocephalides felis, fully sensitive laboratory strain)', 100),
  ('Cc1ccc(N=C2C(=CSc3ccc(F)cc3)C(C)(C)c3ccccc32)cc1', 'cat fleas (Ctenocephalides felis, fully sensitive laboratory strain)', 100),
  ('Cc1ccc(N=C2C(=CSc3ccc(F)cc3)CCc3cc(F)cc(F)c32)cc1 (mixture of isomers)', 'cat fleas (Ctenocephalides felis, fully sensitive laboratory strain)', 100),
  ('COc1cccc2c1CCC(=CSc1ccc(F)cc1)C2=Nc1ccc(C)cc1', 'cat fleas (Ctenocephalides felis, fully sensitive laboratory strain)', 100),
  ('COc1ccc2c(c1)C(=Nc1ccc(C)cc1)C(=CSc1ccc(F)cc1)CC2', 'cat fleas (Ctenocephalides felis, fully sensitive laboratory strain)', 100),
  ('Cc1ccc(N=C2C(=CSc3ccc(F)cc3)CCc3ccc(F)cc32)cc1', 'cat fleas (Ctenocephalides felis, fully sensitive laboratory strain)', 100);

Continue with the compound presented below.
// field: activity against cat fleas; key: CCC1C(=CSc2ccc(F)cc2)C(=Nc2ccc(C)cc2)c2ccccc21 (mixture of isomers) ; value = 100

----------
system: Anopheles gambiae (homocygus kdr); assay: Anopheles test (ANPHGB surface treatment); format: in vivo; conditions: Anopheles gambiae, read-out: activity (mortality in %)
assay.endpoint: mortality at 100 mg/m2

// field: mortality at 100 mg/m2; key: "Fc1ccc(N=C2/C(=C/Sc3ccccc3)CCc3ccccc32)cc1" ; value = 100%

// field: mortality at 100 mg/m2; key: "Cc1ccc(N=C2C(=CSc3ccc(F)cc3)CCc3ccccc32)cc1" ; value = 100%

// field: mortality at 100 mg/m2; key: Cc1ccc(N=C2c3ccccc3CCC2C(Sc2ccccc2)Sc2ccccc2)cc1 (centres unmarked) ; value = 100%

----------
system: caterpillars of the army worm (Spodoptera frugiperda); test: Spodoptera frugiperda test (SPODFR spray treatment); assay type: in vivo; details: 500 g/ha, spray, after 7 days
Overview of recorded activity (caterpillars killed) for various molecules
Value expressed in %; do not type the unit.

Solved cases (7 shown):
INSERT INTO measurements (molecule, numeric_readout) VALUES
  ('Cc1ccc(N=C2C(=CSc3ccccc3)CSc3ccccc32)cc1', 100),
  ('COc1ccc2c(c1)C(=Nc1ccc(C)cc1)C(=CSc1ccc(F)cc1)CC2', 100),
  ('CCC1C(=CSc2ccc(F)cc2)C(=Nc2ccc(C)cc2)c2ccccc21 (mixture of isomers)', 100),
  ('Cc1cc(C)cc(N=C2C(=CSc3ccc(F)cc3)C(C)c3cc(C)ccc32)c1 (mixture of isomers)', 100),
  ('COc1cccc2c1CCC(=CSc1ccc(F)cc1)C2=Nc1ccc(C)cc1', 100),
  ('Cc1ccc(N=C2C(=CSc3ccc(F)cc3)CCc3ccc(F)cc32)cc1', 100),
  ('Cc1ccc(N=C2C(=CSc3ccc(F)cc3)CCc3nc(Cl)ccc32)cc1', 100);

// field: activity (caterpillars killed); key: "Cc1ccc(N=C2C(=CSc3ccc(C(F)(F)F)cc3)CCc3ccccc32)cc1" ; value = 100

----------
system: cat fleas (Ctenocephalides felis, fully sensitive laboratory strain); assay: Contact test against fleas in-vitro (CTECFE contact); type: in vivo; settings: 500 g/ha, after 48 h
Overview of recorded activity against cat fleas for various compounds
The answer should read as a number with its unit following.

// field: activity against cat fleas; key: C(Sc1ccccc1)=C1CCc2ccccc2C1=Nc1ccccc1 [Example 1-8] ; value = 100%

----------
Overview of recorded activity (mortality in %) for various compounds
tested on: Anopheles gambiae (homocygus kdr); assay: Anopheles test (ANPHGB surface treatment); assay type: in vivo; settings: 100 mg/m^2, 24 hours after contact, exposition 30 minutes
Value expressed in %; do not type the unit.

INSERT INTO results (compound, assay_endpoint, measurement_unit, numeric_readout) VALUES
  ('COc1ccc(N=C2c3ccccc3CCC2C(Sc2ccccc2)Sc2ccccc2)cc1 (stereo not shown)', 'activity (mortality in %)', '%', 95),
  ('Cc1ccc(N=C2c3ccc(F)cc3CCC2C(Sc2ccc(F)cc2)Sc2ccc(F)cc2)cc1 (stereo not shown)', 'activity (mortality in %)', '%', 95),
  ('Cc1ccc(N=C2C(=CSc3ccc(F)cc3)CCc3cc(C)cc(C)c32)cc1', 'activity (mortality in %)', '%', 80);

Continue with the compound presented below.
// field: activity (mortality in %); key: "COc1ccc2c(c1C)OCC(=CSc1ccc(F)cc1)C2=Nc1ccc(C)cc1" ; value = 85

----------
test system: Ctenocephalides felis; experiment: Ctenocephalides felis oral test (CTECFE); assay type: in vivo; conditions: 100 ppm in citrated cattle blood, after two days
assay.endpoint: activity (kill in %)
Value expressed in %; do not type the unit.

INSERT INTO assay_data (compound, assay_endpoint, numeric_readout) VALUES
  ('Cc1ccc(N=C2C(=CSc3ccc(F)cc3F)CCc3ccccc32)cc1', 'activity (kill in %)', 100),
  ('Cc1ccc(N=C2C(=CSc3ccc(F)cc3)C(C)c3cccc(F)c32)cc1 (mixture of isomers)', 'activity (kill in %)', 100),
  ('Cc1ccc(N=C2C(=CSc3ccc(F)cc3)CCc3cc(F)cc(F)c32)cc1 (mixture of isomers)', 'activity (kill in %)', 95),
  ('Cc1ccc(N=C2C(=CSc3ccc(C(F)(F)F)cc3)CCc3ccccc32)cc1', 'activity (kill in %)', 100),
  ('COc1ccc(N=C2C(=CSc3ccccc3)CCc3ccccc32)cc1', 'activity (kill in %)', 80);

// field: activity (kill in %); key: "Fc1ccc(N=C2/C(=C/Sc3ccccc3)CCc3ccccc32)cc1" ; value = 90

// field: activity (kill in %); key: Cc1ccc(N=C2C(=CSc3ccc(F)cc3)CCc3sccc32)cc1 (mixture of isomers) ; value = 95

// field: activity (kill in %); key: "Cc1ccc(N=C2C(=CSc3cc(F)cc(F)c3)CCc3ccccc32)cc1" ; value = 100
